Experiment: Drug uptake in fasted intralipid-challenged Sprague-Dawley rat portal vein at 5 mg/kg, po administered 30 mins prior to intralipid-challenge measured at 6 hrs by LC/MS analysis
Assay type: ADME, organism-based
Design: dose 5 mg/kg, route oral
Details: read-out: Drug uptake
measurement label: concentration at 6 h (nM)
Numbers only, in nM.

response.value for Cc1cc(CCC(=O)O)cc(C)c1-c1nc2ccc(C(=O)Nc3ccc(C(C)(C)C)cc3)cc2[nH]1 (field: concentration at 6 h) = 8

###

Assay: Dissociation constant, pKa of the compound by potentiometric titration method
Type: physicochemical
measurement label: pKa
Numbers only.

Consider the following illustrative entries.
test smiles | pKa
Cc1ccc(NC(=O)c2ccc3nc(-c4c(C)cc(CCC(=O)O)cc4C)[nH]c3c2)cc1C | 4.3
Cc1ccc(NC(=O)c2ccc3nc(-c4c(C)cc(NCC(=O)O)cc4C)[nH]c3c2)cc1C | 5.1

Okay, now this compound:
compound Cc1ccc(NC(=O)c2ccc3nc(-c4c(C)cc(OCC(=O)O)cc4C)[nH]c3c2)cc1C , pKa observed: 4.8
